subject of test: PARP (Mus musculus)
Construct: PARP Activity in Cultured Macrophages, Using a Whole-Cell Based Assay; endogenous in cells
Sequence (P11103 whole entry): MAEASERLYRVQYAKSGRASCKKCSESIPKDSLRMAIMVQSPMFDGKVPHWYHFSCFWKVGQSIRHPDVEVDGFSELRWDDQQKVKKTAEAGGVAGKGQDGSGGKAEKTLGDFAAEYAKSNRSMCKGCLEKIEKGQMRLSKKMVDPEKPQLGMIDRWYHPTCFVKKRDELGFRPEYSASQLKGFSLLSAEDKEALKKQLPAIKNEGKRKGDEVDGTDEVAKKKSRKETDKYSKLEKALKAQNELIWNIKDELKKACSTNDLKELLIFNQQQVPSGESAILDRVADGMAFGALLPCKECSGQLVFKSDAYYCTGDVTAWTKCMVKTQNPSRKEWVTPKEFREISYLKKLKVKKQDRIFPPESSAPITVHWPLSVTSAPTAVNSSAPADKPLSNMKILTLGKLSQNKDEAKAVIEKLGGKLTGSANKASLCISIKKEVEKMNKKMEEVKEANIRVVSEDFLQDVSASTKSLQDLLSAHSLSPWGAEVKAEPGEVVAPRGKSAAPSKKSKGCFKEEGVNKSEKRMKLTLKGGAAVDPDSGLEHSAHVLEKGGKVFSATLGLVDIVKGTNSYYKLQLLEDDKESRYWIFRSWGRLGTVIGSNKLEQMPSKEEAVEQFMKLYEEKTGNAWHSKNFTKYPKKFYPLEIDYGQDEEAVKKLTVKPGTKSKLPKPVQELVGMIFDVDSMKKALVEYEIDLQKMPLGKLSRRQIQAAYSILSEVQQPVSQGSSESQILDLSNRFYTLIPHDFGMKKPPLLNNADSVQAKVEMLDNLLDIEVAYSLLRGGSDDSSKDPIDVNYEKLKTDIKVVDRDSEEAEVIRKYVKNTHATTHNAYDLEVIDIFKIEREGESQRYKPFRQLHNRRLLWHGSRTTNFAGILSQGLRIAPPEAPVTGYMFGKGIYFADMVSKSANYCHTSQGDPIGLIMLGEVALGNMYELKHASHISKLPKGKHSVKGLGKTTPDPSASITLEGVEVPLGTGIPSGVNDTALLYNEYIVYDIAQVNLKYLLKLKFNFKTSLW
run description: PARP activity in cultured macrophages, whole-cell based assay (3H-NAD+ incorporation after hydrogen peroxide)
settings: murine RAW macrophages, 1 hour pretreatment, hydrogen peroxide 0.5 mM
pEC50: −log10 of the molar value. Where a name gives a salt, the structure may show the parent alone.
measured metric: pEC50

O=c1[nH]c2c(c3c1CCCC3)Cc1c(CN3CCCC3)cccc1-2 [Example 8, hydrochloride]	8.07
O=c1[nH]c2c(c3ncccc13)Cc1c(CNC3CCCC3)cccc1-2	7.89
CN1CCN(c2cccc3c2Cc2c-3[nH]c(=O)c3cccnc23)CC1	8.05

A: COCCNCc1ccc2c(c1)Cc1c-2[nH]c(=O)c2c1CCCC2
B: O=c1[nH]c2c(c3c1CCCC3)Cc1c(CN3CCNCC3)cccc1-2
Which value of pEC50 is greater, the one for A or the one for B ? # reply format: chosen label
A
(A: 7.30, B: 7.10)

a: CC(C)N1CCN(c2cccc3c2Cc2c-3[nH]c(=O)c3cccnc23)CC1
b: O=c1[nH]c2c(c3c1CCCC3)Cc1cc(CNC3CCCC3)ccc1-2
c: O=c1[nH]c2c(c3c1CCCC3)Cc1c(CN3CCCC3)cccc1-2 [Example 6]
Hi! Can you put these in order of pEC50, lowest number first? Please express your ranking as an ordered list of the labels.
b, a, c

a: COCCN1CCN(Cc2ccc3c(c2)Cc2c-3[nH]c(=O)c3c2CCCC3)CC1
b: C[S+]([O-])CCC(=O)Nc1cccc2c1Cc1c-2[nH]c(=O)c2c1CCCC2 (stereo not shown)
c: O=c1[nH]c2c(c3c1CCCC3)Cc1c(CN3CCCCCCC3)cccc1-2
d: O=c1[nH]c2c(c3ccsc13)Cc1c(CNC3CCCC3)cccc1-2
e: CCN1CCN(c2cccc3c2Cc2c-3[nH]c(=O)c3cccnc23)CC1
Sort these compounds on pEC50 so the largest reading comes first. Please express your ranking as an ordered list of the labels.
e, b, d, c, a

A: O=c1[nH]c2c(c3c1CCCC3)Cc1cc(CN3CCOCC3)ccc1-2
B: O=c1[nH]c2c(c3c1CCCC3)Cc1c(CNC3(CO)CCCC3)cccc1-2
C: O=c1[nH]c2c(c3c1CCCC3)Cc1c(CN3CC=CCC3)cccc1-2
D: O=c1[nH]c2c(c3c1CCCC3)Cc1cc(CN3CCC(F)(F)CC3)ccc1-2
E: O=c1[nH]c2c(c3c1CCCC3)Cc1c(CN3CCC(O)CC3)cccc1-2
Sort these compounds on pEC50 so the largest reading comes first. Please express your ranking as an ordered list of the labels.
B, E, C, A, D
